biological target: acid ceramidase (hACR) (Homo sapiens); construct: expressed in transfected cells; assay: Acid ceramidase inhibition, biochemical fluorescent assay with cell lysates overexpressing acid ceramidase (substrate Rbm14-12); conditions: cell lysate, 1 hr preincubation at RT, pH 4.5, Rbm14-12 6.3 μM; read-out: IC50 hACR
Sequence (Q13510 22-395): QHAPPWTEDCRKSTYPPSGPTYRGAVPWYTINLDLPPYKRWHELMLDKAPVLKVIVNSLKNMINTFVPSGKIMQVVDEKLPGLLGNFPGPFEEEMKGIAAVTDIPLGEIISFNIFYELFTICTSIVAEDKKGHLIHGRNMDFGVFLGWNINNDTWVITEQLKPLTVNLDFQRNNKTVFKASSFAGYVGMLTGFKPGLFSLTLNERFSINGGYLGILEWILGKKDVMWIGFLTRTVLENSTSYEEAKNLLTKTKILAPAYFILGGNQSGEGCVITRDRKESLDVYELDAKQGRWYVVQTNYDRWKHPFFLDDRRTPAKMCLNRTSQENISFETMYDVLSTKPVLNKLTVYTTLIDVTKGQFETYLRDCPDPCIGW
parameter measured: IC50

[
  {
    "compound": "Cc1cnc(OC(C)C)n1C(=O)NCCc1ccccc1",
    "parameter measured": "IC50",
    "measured result": "< 200 nM"
  },
  {
    "compound": "CC(C)c1ccc(-c2cn(C(=O)NCCc3ccccc3)cn2)cn1",
    "parameter measured": "IC50",
    "measured result": "< 200 nM"
  },
  {
    "compound": "O=C(NCCC1(C(F)(F)F)CC1)n1cnc(-c2cccnc2)c1",
    "parameter measured": "IC50",
    "measured result": "200 to 1000 nM"
  },
  {
    "compound": "COc1nc(C2CC2)cn1C(=O)NCCC(C)C",
    "parameter measured": "IC50",
    "measured result": "> 1000 nM"
  },
  {
    "compound": "CC(C)CNC(=O)n1cc(C(C)(C)C)nc1OC(C)C",
    "parameter measured": "IC50",
    "measured result": "200 to 1000 nM"
  },
  {
    "compound": "COc1nc(C(C)(C)C)cn1C(=O)NCCCC(F)(F)F",
    "parameter measured": "IC50",
    "measured result": "200 to 1000 nM"
  }
]

Return reported IC50; argument: COc1nc(C)cn1C(=O)NC1CCC(F)(F)CC1
> 1000 nM

Return reported IC50; argument: Cc1ccc(-c2cn(C(=O)NCCc3ccccc3)cn2)cn1
< 200 nM

Return reported IC50; argument: COc1ccc(-c2cn(C(=O)NC3CCCCC3)cn2)cn1
> 1000 nM

Return reported IC50; argument: COc1nc(Cl)cn1C(=O)NCCC1CCCC1(F)F (centres unmarked)
< 200 nM

Return reported IC50; argument: COc1nc(C(C)(C)C)cn1C(=O)NCCCCC1CC1
< 200 nM

Return reported IC50; argument: CC(C)CC(C)NC(=O)n1cnc(-c2cccnc2)c1 (centres unmarked)
200 to 1000 nM

Return reported IC50; argument: COc1nc(C2CC2)cn1C(=O)NC1CC1
> 1000 nM

Return reported IC50; argument: O=C(NC1CCCCC1)n1cnc(-c2cccnc2)c1
> 1000 nM
